Biological target: c-Met kinase domain recombinant protein (Homo sapiens)
Construct: 50 μL diluted solution of c-Met kinase domain recombinant protein in reaction buffer was added to initiate the reaction
Assay: biochemical
Conditions: read-out: Inhibition rate at 10 μM (%)
Method: Enzymatic reaction substrate Poly(Glu,Tyr)4:1 was diluted to 20 μg/mL in potassium ion free PBS (10 mM sodium phosphate buffer, 150 mM NaCl, pH7.2-7.4), microplate was coated with this solution at 125 μL per well, and reacted at 37° C. for 12-16 hours. […] Reaction was terminated by adding 50 μL per well of 2M H2SO4, the plate was read at 490 nm using a VERSAmax microplate reader with tunable wavelength. Inhibition rate of the sample was calculated using the following equation: […]
Observation type: inhibition at 10 µM (%)
Report the figure in % without appending any unit label.

- Smiles string: "Cn1cc(-c2cnc3cnn(S(=O)(=O)c4cccc5nonc45)c3c2)cn1"
  Observation type: "inhibition at 10 µM"
  Result number: 85.7

Pending compound:
Query: # input compound: CC(=O)N1CCC(n2cc(-c3cnc4cnn(S(=O)(=O)c5cnc6ccccn56)c4c3)cn2)CC1 ; wanted: its inhibition at 10 µM
Result: 70.7

###

target: c-Met kinase domain recombinant protein (Homo sapiens, UniProt P08581); construct: 50 μL diluted solution of c-Met kinase domain recombinant protein in reaction buffer was added to initiate the reaction; assay: biochemical; conditions: read-out: Inhibition rate at 10 μM (%)
Sequence (P08581 1078-1345 limits assumed): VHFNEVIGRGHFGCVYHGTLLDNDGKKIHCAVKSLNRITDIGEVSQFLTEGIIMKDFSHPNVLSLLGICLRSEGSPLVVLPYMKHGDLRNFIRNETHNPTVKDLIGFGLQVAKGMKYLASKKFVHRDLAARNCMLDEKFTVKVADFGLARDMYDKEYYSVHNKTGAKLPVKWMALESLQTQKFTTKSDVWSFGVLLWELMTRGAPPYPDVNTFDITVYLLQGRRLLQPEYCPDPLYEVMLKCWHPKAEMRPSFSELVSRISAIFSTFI
Observation type: inhibition at 10 µM

- Compound: "Cn1cc(-c2cnc3cnn(S(=O)(=O)c4ccc(F)cc4)c3c2)cn1 [Compound 7]"
  inhibition at 10 µM: "40.7%"
- Compound: "Cc1noc(C)c1S(=O)(=O)n1ncc2ncc(-c3cnn(C)c3)cc21 [Compound 11]"
  inhibition at 10 µM: "48.6%"
- Compound: "Cn1cc(-c2cnc3cnn(S(=O)(=O)c4cnc5ccc(-c6cnn(C7CCNCC7)c6)cn45)c3c2)cn1 [Example 82]"
  inhibition at 10 µM: "> 78.5%"
- Compound: "Cn1cc(-c2cnc3cnn(S(=O)(=O)c4ccccc4C(F)(F)F)c3c2)cn1 [Compound 14]"
  inhibition at 10 µM: "74.3%"
- Compound: "CN(C)C(=O)c1ccc(-c2ccc3ncc(S(=O)(=O)n4ncc5ncc(-c6cnn(C)c6)cc54)n3c2)cc1 [Example 73]"
  inhibition at 10 µM: "59.6%"
- Compound: "Cn1cc(-c2cnc3cnn(S(=O)(=O)c4cnc5ccc(-c6cccc(F)c6)cn45)c3c2)cn1 [Example 86]"
  inhibition at 10 µM: "> 67.9%"

Query: Form field - read-out: inhibition at 10 µM; system: c-Met kinase domain recombinant protein (Homo sapiens, UniProt P08581); submitted item: Cn1cc(-c2cnc3cnn(S(=O)(=O)c4cnc5ccc(-c6cncnc6)cn45)c3c2)cn1 [Example 74]
Result: > 67.6%

Query: Form field - read-out: inhibition at 10 µM; system: c-Met kinase domain recombinant protein (Homo sapiens, UniProt P08581); submitted item: Cn1cc(-c2cnc3cnn(S(=O)(=O)c4cnc5ccc(-c6ccsc6)cn45)c3c2)cn1 [Example 72]
Result: 80.9%

Query: Form field - read-out: inhibition at 10 µM; system: c-Met kinase domain recombinant protein (Homo sapiens, UniProt P08581); submitted item: CN(C)c1ccc(-c2ccc3ncc(S(=O)(=O)n4ncc5ncc(-c6cnn(C)c6)cc54)n3c2)cc1 [Example 85]
Result: > 71.2%

Query: Form field - read-out: inhibition at 10 µM; system: c-Met kinase domain recombinant protein (Homo sapiens, UniProt P08581); submitted item: Cn1cc(-c2cnc3cnn(S(=O)(=O)c4cnc5ccc(-c6ccc(Cl)cc6)cn45)c3c2)cn1 [Example 94]
Result: > 74.3%

Query: Form field - read-out: inhibition at 10 µM; system: c-Met kinase domain recombinant protein (Homo sapiens, UniProt P08581); submitted item: Cn1cc(-c2cnc3cnn(S(=O)(=O)c4cnc5ccc(Cl)cn45)c3c2)cn1 [Example 24]
Result: 70.5%

Query: Form field - read-out: inhibition at 10 µM; system: c-Met kinase domain recombinant protein (Homo sapiens, UniProt P08581); submitted item: Cn1cc(-c2cnc3[nH]nc(S(=O)(=O)c4ccccc4[N+](=O)[O-])c3c2)cn1 [Compound 2]
Result: 92.8%

Query: Form field - read-out: inhibition at 10 µM; system: c-Met kinase domain recombinant protein (Homo sapiens, UniProt P08581); submitted item: CN(C)c1ccc(-c2cnc3cnn(S(=O)(=O)c4cnc5ccccn45)c3c2)cc1 [Example 42]
Result: 67.5%

Query: Form field - read-out: inhibition at 10 µM; system: c-Met kinase domain recombinant protein (Homo sapiens, UniProt P08581); submitted item: O=S(=O)(c1cnc2ccccn12)n1ncc2ncc(-c3ccc(C(F)(F)F)cc3)cc21 [Example 32]
Result: 64.2%

Query: Form field - read-out: inhibition at 10 µM; system: c-Met kinase domain recombinant protein (Homo sapiens, UniProt P08581); submitted item: CC(=O)c1ccc(S(=O)(=O)n2ncc3ncc(-c4cnn(C)c4)cc32)cc1 [Compound 13]
Result: 52.6%

Query: Form field - read-out: inhibition at 10 µM; system: c-Met kinase domain recombinant protein (Homo sapiens, UniProt P08581); submitted item: CC(C)(C)OC(=O)N1CCC(n2cc(-c3cnc4cnn(S(=O)(=O)c5cnn6cccnc56)c4c3)cn2)CC1 [Example 46]
Result: 81.3%
